molecular target: T1, recombinant ILT2 (human) (human, UniProt Q8NHL6 24-461); assay: SPR (Biacore T200), HEK EBNA supernatants on recombinant ILT2 peptide
T1 construct: also called recombinant ILT2 peptide; ILT2 protein
T1 sequence (Q8NHL6 24-461 limits assumed): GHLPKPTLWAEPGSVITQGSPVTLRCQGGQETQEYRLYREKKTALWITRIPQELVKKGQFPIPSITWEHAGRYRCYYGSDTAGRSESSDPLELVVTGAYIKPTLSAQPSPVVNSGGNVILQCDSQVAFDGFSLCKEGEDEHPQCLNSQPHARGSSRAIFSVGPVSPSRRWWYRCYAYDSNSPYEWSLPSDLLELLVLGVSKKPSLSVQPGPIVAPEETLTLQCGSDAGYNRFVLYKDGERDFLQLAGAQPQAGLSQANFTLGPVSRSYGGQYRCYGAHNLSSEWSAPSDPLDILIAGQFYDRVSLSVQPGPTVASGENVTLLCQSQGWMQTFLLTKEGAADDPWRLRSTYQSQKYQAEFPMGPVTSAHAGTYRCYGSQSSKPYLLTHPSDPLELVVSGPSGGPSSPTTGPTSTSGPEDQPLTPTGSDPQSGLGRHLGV
Kd listing for selected binders.
Numbers only here, please. The scale is nM.

>>> recorded_measurement("15G8-13 (humanized 15G8, VH1/Vk3, alanine variant A108) (antibody, human IgG4 S228P, kappa, V domains shown, Humanized IgG4 (S228P, L235E), kappa; also called 15G8 humanized antibody; BND-22) VH: DVQLQGSGPGLVKPSETLSLTCSVTGYSITSGYYWNWIRQFPGKKLEWMGYISYDGSNNYNPSLKNRITISRDTSKNQFSLKLNSVTAADTATYYCAHGYSYYYAMDAWGQGTSVTVSS VL: DIQMTQSPSSLSASVGDRVTITCRTSQDISNYLNWYQQKPGKAVKLLISYTSRLHSGVPSRFSGSGSGTDYTLTISSLQPEDFATYYCQQGNTLPTFGQGTKLEIKR")
6.94
>>> recorded_measurement("chimeric 15G8 antibody (antibody, V domains shown, Chimeric form of murine 15G8) VH: DVQLQGSGPGLVKPSQSLSLTCSVTGYSITSGYYWNWIRQFPGNKLEWMGYISYDGSNNYNPSLKNRISITRDTSKNQFFLKLNSVTSEDTATYYCAHGYSYYYAMDCWGQGTSVTVSS VL: DIQMTQTTSSLSASLGDRVTISCRTSQDISNYLNWYQQKPDGTVKLLISYTSRLHSGVPSRFSGSGSGTDYSLTISNLEQEDIATYFCQQGNTLPTFGSGTKLEIK")
12.6

Measured Kd, 15G8-53 (humanized 15G8, VH5/Vk3) (antibody, human IgG4 S228P, kappa, V domains shown, Humanized IgG4 (S228P, L235E), kappa) VH: QVQLQGSGPGLVKPSETLSLTCTVTGYSITSGYYWNWIRQPPGKGLEWIGYISYDGSNNYNPSLKNRVTISRDTSKNQFSLKLSSVTAADTATYYCAHGYSYYYAMDAWGQGTTVTVSS VL: DIQMTQSPSSLSASVGDRVTITCRTSQDISNYLNWYQQKPGKAVKLLISYTSRLHSGVPSRFSGSGSGTDYTLTISSLQPEDFATYYCQQGNTLPTFGQGTKLEIKR : 10.6
